src = paper PMC2706954

# Tested on: S. epidermidis NCTC11047
# Format: cell-based
# Measurement Setup: NCTC11047
Examples of compounds with documented MIC S. epidermidis NCTC11047 follow.

Here is how some compounds turned out for MIC S. epidermidis NCTC11047.
Compound	MIC S. epidermidis NCTC11047
C=C1NC(=O)C2NC(=O)[C@H](C(C)C)NC(=O)C(NC(=O)[C@@H]3CSC(C)C(NC(=O)[C@H](Cc4ccccc4)NC(=O)C4NC(=O)[C@@H](N)CSC4C)C(=O)N[C@@H](CC(C)C)C(=O)N4CCC[C@H]4C(=O)NCC(=O)NCC(=O)NCC(=O)NCC(=O)N[C@@H](C(C)C)C(=O)N3)C(C)SC[C@H](NC(=O)[C@H](CCC(=O)O)NC1=O)C(=O)N[C@@H]([C@@H](C)CC)C(=O)NC=CSC2C (stereo partly shown) [L14V]	16 µg/mL
C=C1NC(=O)C2NC(=O)[C@H](CC(C)C)NC(=O)C(NC(=O)[C@@H]3CSC(C)C(NC(=O)[C@H](Cc4ccccc4)NC(=O)C4NC(=O)[C@@H](N)CSC4C)C(=O)N[C@@H](CC(C)C)C(=O)N4CCC[C@H]4C(=O)NCC(=O)NCC(=O)NCC(=O)NCC(=O)N[C@@H](CC(C)C)C(=O)N3)C(C)SC[C@H](NC(=O)[C@H](CCC(=O)O)NC1=O)C(=O)N[C@@H]([C@@H](C)CC)C(=O)NC=CSC2C (stereo partly shown) [V11L]	16 µg/mL
CC[C@H](C)[C@@H]1NC(=O)[C@@H]2CSC(C)C(NC(=O)[C@@H]3CSC(C)C(NC(=O)[C@H](Cc4ccccc4)NC(=O)C4NC(=O)[C@@H](N)CSC4C)C(=O)N[C@@H](CC(C)C)C(=O)N4CCC[C@H]4C(=O)NCC(=O)NCC(=O)NCC(=O)NCC(=O)N[C@@H](C(C)C)C(=O)N3)C(=O)N[C@@H](CC(C)C)C(=O)NC(C(=O)N[C@@H](C)C(=O)N[C@@H](CCC(=O)O)C(=O)N2)C(C)SC=CNC1=O (stereo partly shown) [S16A]	32 µg/mL

Let us move to another entry and its MIC S. epidermidis NCTC11047.
Per the reported S. epidermidis NCTC11047 data, C=C1NC(=O)C2NC(=O)[C@H](CC(C)C)NC(=O)C(NC(=O)[C@@H]3CSC(C)C(NC(=O)[C@H](Cc4ccccc4)NC(=O)C4NC(=O)[C@@H](N)CSC4C)C(=O)N[C@@H](CC(C)C)C(=O)N4CCC[C@H]4C(=O)NCC(=O)NCC(=O)N[C@@H](CO)C(=O)NCC(=O)N[C@@H](C(C)C)C(=O)N3)C(C)SC[C@H](NC(=O)[C@H](CCC(=O)O)NC1=O)C(=O)N[C@@H]([C@@H](C)CC)C(=O)NC=CSC2C (stereo partly shown) [G9S] has MIC S. epidermidis NCTC11047 of >64 µg/mL

###

# Test system: E. faecium 7131121 VRE
# Format: cell-based
# Measurement Setup: 7131121 VRE
Property Name: MIC E. faecium 7131121 VRE (µg/mL)
# value in µg/mL; strip the unit string

Lookup result for C=C1NC(=O)C2NC(=O)[C@H](CC(C)C)NC(=O)C(NC(=O)[C@@H]3CSC(C)C(NC(=O)[C@H](Cc4ccccc4)NC(=O)C4NC(=O)[C@@H](N)CSC4C)C(=O)N[C@@H](CC(C)C)C(=O)N4CCC[C@H]4C(=O)NCC(=O)NCC(=O)NCC(=O)NCC(=O)N[C@@H](CC(C)C)C(=O)N3)C(C)SC[C@H](NC(=O)[C@H](CCC(=O)O)NC1=O)C(=O)N[C@@H]([C@@H](C)CC)C(=O)NC=CSC2C (stereo partly shown) [V11L] ; measured MIC E. faecium 7131121 VRE: 32

###

# Test system: E. faecalis ATCC29212
# Type: cell-based
# Measurement Setup: ATCC29212
Examples of compounds with documented MIC E. faecalis ATCC29212 follow.

Here is how some compounds turned out for MIC E. faecalis ATCC29212.
Compound	MIC E. faecalis ATCC29212
C=C1NC(=O)C2NC(=O)[C@H](CC(C)C)NC(=O)C(NC(=O)[C@@H]3CSC(C)C(NC(=O)[C@H](Cc4ccccc4)NC(=O)C4NC(=O)[C@@H](N)CSC4C)C(=O)N[C@@H](CC(C)C)C(=O)N4CCC[C@H]4C(=O)NCC(=O)NCC(=O)NCC(=O)N[C@@H](CC(N)=O)C(=O)N[C@@H](C(C)C)C(=O)N3)C(C)SC[C@H](NC(=O)[C@H](CCC(=O)O)NC1=O)C(=O)N[C@@H]([C@@H](C)CC)C(=O)NC=CSC2C (stereo partly drawn) [G10N]	>64 µg/mL
C=C1NC(=O)C2NC(=O)[C@H](CC(C)C)NC(=O)C(NC(=O)[C@@H]3CSC(C)C(NC(=O)[C@H](Cc4c[nH]c5ccccc45)NC(=O)C4NC(=O)[C@@H](N)CSC4C)C(=O)N[C@@H](CC(C)C)C(=O)N4CCC[C@H]4C(=O)NCC(=O)NCC(=O)NCC(=O)NCC(=O)N[C@@H](C(C)C)C(=O)N3)C(C)SC[C@H](NC(=O)[C@H](CCC(=O)O)NC1=O)C(=O)N[C@@H]([C@@H](C)CC)C(=O)NC=CSC2C (stereo partly drawn)	32 µg/mL

Let us move to another entry and its MIC E. faecalis ATCC29212.
Lookup result for C=C1NC(=O)C2NC(=O)[C@H](CC(C)C)NC(=O)C(NC(=O)[C@@H]3CSC(C)C(NC(=O)[C@H](Cc4ccccc4)NC(=O)C4NC(=O)[C@@H](N)CSC4C)C(=O)N[C@@H](CC(C)C)C(=O)N4CCC[C@H]4C(=O)NCC(=O)N[C@@H](CCC(N)=O)C(=O)NCC(=O)NCC(=O)N[C@@H](C(C)C)C(=O)N3)C(C)SC[C@H](NC(=O)[C@H](CCC(=O)O)NC1=O)C(=O)N[C@@H]([C@@H](C)CC)C(=O)NC=CSC2C (stereo partly drawn) ; measured MIC E. faecalis ATCC29212: >64 µg/mL

###

# System: E. faecalis ATCC29212
# Assay type: cell-based
# Measurement Setup: ATCC29212
Property Name: MIC E. faecalis ATCC29212

Compound	Endpoint Value
C=C1NC(=O)C2NC(=O)[C@H](CC(C)C)NC(=O)C(NC(=O)[C@@H]3CSC(C)C(NC(=O)[C@H](Cc4ccccc4)NC(=O)C4NC(=O)[C@@H](N)CSC4C)C(=O)N[C@@H](CC(C)C)C(=O)N4CCC[C@H]4C(=O)NCC(=O)N[C@@H](Cc4c[nH]cn4)C(=O)NCC(=O)NCC(=O)N[C@@H](C(C)C)C(=O)N3)C(C)SC[C@H](NC(=O)[C@H](CCC(=O)O)NC1=O)C(=O)N[C@@H]([C@@H](C)CC)C(=O)NC=CSC2C (some centres unmarked) [G8H]	>64 µg/mL

Let us move to another entry and its MIC E. faecalis ATCC29212.
Lookup result for C=C1NC(=O)C2NC(=O)[C@H](CC(C)C)NC(=O)C(NC(=O)[C@@H]3CSC(C)C(NC(=O)[C@H](Cc4ccccc4)NC(=O)C4NC(=O)[C@@H](N)CSC4C)C(=O)N[C@@H](CC(C)C)C(=O)N4CCC[C@H]4C(=O)NCC(=O)NCC(=O)NCC(=O)NCC(=O)N[C@@H](CC(C)C)C(=O)N3)C(C)SC[C@H](NC(=O)[C@H](CCC(=O)O)NC1=O)C(=O)N[C@@H]([C@@H](C)CC)C(=O)NC=CSC2C (some centres unmarked) [V11L] ; measured MIC E. faecalis ATCC29212: 64 µg/mL

###

# Tested on: E. faecalis ATCC29212
# Format: cell-based
# Measurement Setup: ATCC29212
Property Name: MIC E. faecalis ATCC29212

Compound	Endpoint Value
C=C1NC(=O)C2NC(=O)[C@H](CC(C)C)NC(=O)C(NC(=O)[C@@H]3CSC(C)C(NC(=O)[C@H](Cc4ccccc4)NC(=O)C4NC(=O)[C@@H](N)CSC4C)C(=O)N[C@@H](CC(C)C)C(=O)N4CCC[C@H]4C(=O)NCC(=O)NCC(=O)N[C@@H](C)C(=O)NCC(=O)N[C@@H](C(C)C)C(=O)N3)C(C)SC[C@H](NC(=O)[C@H](CCC(=O)O)NC1=O)C(=O)N[C@@H]([C@@H](C)CC)C(=O)NC=CSC2C (some centres unmarked)	>64 µg/mL

Let us move to another entry and its MIC E. faecalis ATCC29212.
Lookup result for C=C1NC(=O)C2NC(=O)[C@H](CC(C)C)NC(=O)C(NC(=O)[C@@H]3CSC(C)C(NC(=O)[C@H](Cc4ccccc4)NC(=O)C4NC(=O)[C@@H](N)CSC4C)C(=O)N[C@@H](CC(C)C)C(=O)N4CCC[C@H]4C(=O)N[C@@H](CC(N)=O)C(=O)NCC(=O)NCC(=O)NCC(=O)N[C@@H](C(C)C)C(=O)N3)C(C)SC[C@H](NC(=O)[C@H](CCC(=O)O)NC1=O)C(=O)N[C@@H]([C@@H](C)CC)C(=O)NC=CSC2C (some centres unmarked) ; measured MIC E. faecalis ATCC29212: >64 µg/mL
